# Test system: HSV-1
# assay.overview: In vitro viral inhibition (plaque) assay in CV-1 cells
# Format: cell-based
# condition.info: Human alphaherpesvirus 1, read-out: average IC50 of HSV-1 replication
value.kind: IC50 (µM)
# output: bare number, implied unit µM

*Q* So what does the record say about IC50 for CN1CC[C@H](c2c(O)cc(O)c3c(=O)cc(-c4ccccc4Cl)oc23)[C@H](O)C1 ?
*A* 0.1
